- System: NCI/ADR-RES
- PROTOCOL_NOTES: Reversal of paclitaxel resistance in human MCF7ADR cells assessed as reduction in paclitaxel IC50 at 5 uM pretreated with compound for 4 hrs followed by paclitaxel addition and measured after 72 hrs by MTT assay (reference value: 6.68 +/- 0.35 microM)
- Format: functional, cell-based
Please use the following IC50 ranges when assigning a class: band 1: < 100 nM; band 2: ≥ 100 nM and < 200 nM; band 3: ≥ 200 nM

Example results:
COMPOUND | LABEL_CLASS
COc1cc(-c2c(-c3ccc(Cl)cc3)c(C)nc3cc(-c4ccco4)nn23)cc(OC)c1OC | band 3
COc1ccc(-c2c(C)nc3cc(Br)nn3c2-c2cc(OC)c(OC)c(OC)c2)cc1 | band 3
COc1ccc(-c2c(C)nc3cc(-c4ccco4)nn3c2-c2cc(OC)c(OC)c(OC)c2)cc1OC | band 1
COc1cc(-c2c(-c3ccc(Cl)cc3)c(C)nc3cc(-c4ccccc4)nn23)cc(OC)c1OC | band 1

Note: place this compound into its band. Item: COc1cc(-c2c(-c3ccc(F)cc3)c(C)nc3cc(-c4ccco4)nn23)cc(OC)c1OC band 2

Let us now turn to CCc1cc2nc(C)c(-c3ccc(OC)cc3)c(-c3cc(OC)c(OC)c(OC)c3)n2n1 band 3

For COc1cc(-c2c(-c3ccc(F)cc3)c(C)nc3cc(-c4cccs4)nn23)cc(OC)c1OC then? band 2

Try this compound too: COc1ccc(-c2c(C)nc3cc(C)nn3c2-c2cc(OC)c(OC)c(OC)c2)cc1 band 3

Would you mind doing COc1ccc(CCN(C)CCCC(C#N)(c2ccc(OC)c(OC)c2)C(C)C)cc1OC (stereo not given) [VERAPAMIL] as well? band 2

====

- PROTOCOL_NOTES: Cytotoxicity against HEK293T cells assessed as cell viability at 10 uM
- Format: toxicity, cell-based, HEK-293T
- CONDITION_INFO: human, read-out: Activity
MEASUREMENT_KIND: viability at 10 µM

What value of viability at 10 µM has been reported for the following compound? COc1cc(-c2c(C)nc3cc(-c4cccs4)nn3c2-c2cc(OC)c(OC)c(OC)c2)cc(OC)c1OC > 80%

====

- Test system: NCI/ADR-RES
- PROTOCOL_NOTES: Antiproliferative activity against human MCF7ADR cells assessed as survival rate at 5 uM incubated for 72 hrs by MTT assay
- Type: functional
- CONDITION_INFO: read-out: Survival
Examples of compounds with documented viability at 5 µM follow.

Answered examples (3):
COMPOUND_STRING | viability at 5 µM
COc1ccc(-c2c(C)nc3cc(-c4cccs4)nn3c2-c2cc(OC)c(OC)c(OC)c2)cc1 | 85.1%
COc1cc(-c2c(-c3ccc(Br)cc3)c(C)nc3cc(-c4ccco4)nn23)cc(OC)c1OC | 93.6%
COc1cc(-c2c(C)nc3cc(-c4ccccc4)nn3c2-c2cc(OC)c(OC)c(OC)c2)cc(OC)c1OC | 93.5%

Value lookup for viability at 5 µM; key = COc1ccc(-c2c(C)nc3cc(C#N)nn3c2-c2cc(OC)c(OC)c(OC)c2)cc1 90.6%

Next entry: COc1cc(-c2c(C)nc3cc(C4CC4)nn3c2-c2cc(OC)c(OC)c(OC)c2)cc(OC)c1OC 90.5%

Let us now turn to COc1ccc(-c2c(C)nc3cc(-c4ccccc4)nn3c2-c2cc(OC)c(OC)c(OC)c2)cc1 89.2%

Also COc1ccc(-c2c(C)nc3cc(-c4cccs4)nn3c2-c2cc(OC)c(OC)c(OC)c2)cc1OC , if possible. 94.6%

Cool, now COc1ccc(-c2c(C)nc3cc(-c4ccco4)nn3c2-c2cc(OC)c(OC)c(OC)c2)cc1OC 97.1%

Cool, now COc1cc(-c2c(-c3ccc(F)cc3)c(C)nc3cc(-c4cccs4)nn23)cc(OC)c1OC 90.7%

COc1ccc(-c2c(C)nc3cc(-c4ccco4)nn3c2-c2cc(OC)c(OC)c(OC)c2)cc1 , same question. 93.1%

Another compound to check: COc1ccc(-c2c(C)nc3cc(Br)nn3c2-c2cc(OC)c(OC)c(OC)c2)cc1 91.2%

Could you do the same for COc1cc(-c2c(-c3ccc(Br)cc3)c(C)nc3cc(-c4cccs4)nn23)cc(OC)c1OC , please? 94.2%

====

- PROTOCOL_NOTES: Cytotoxicity against human GES1 cells assessed as cell viability at 10 uM
- Type: toxicity, cell-based
- CONDITION_INFO: read-out: Activity
MEASUREMENT_KIND: viability at 10 µM

Which viability at 10 µM value is on record for COc1cc(-c2c(C)nc3cc(-c4cccs4)nn3c2-c2cc(OC)c(OC)c(OC)c2)cc(OC)c1OC ? > 80%

====

- PROTOCOL_NOTES: Cytotoxicity against HUVECs assessed as cell viability at 10 uM
- Format: toxicity, cell-based
- CONDITION_INFO: human, HUVEC cells, read-out: Activity
MEASUREMENT_KIND: viability at 10 µM

Which viability at 10 µM is reported for this compound? COc1cc(-c2c(C)nc3cc(-c4cccs4)nn3c2-c2cc(OC)c(OC)c(OC)c2)cc(OC)c1OC > 80%

====

- System: NCI/ADR-RES
- PROTOCOL_NOTES: Reversal of paclitaxel resistance in human MCF7ADR cells assessed as reduction in paclitaxel IC50 at 5 uM pretreated with compound for 4 hrs followed by paclitaxel addition and measured after 72 hrs by MTT assay (reference value: 6.68 +/- 0.35 microM)
- Format: functional, cell-based
API: label(entry) gives true if the entry's IC50 is strictly smaller than 50 nM; on equality or larger values it gives false.

COMPOUND_STRING | LABEL_CLASS
COc1cc(-c2c(C)nc3cc(-c4cccs4)nn3c2-c2cc(OC)c(OC)c(OC)c2)cc(OC)c1OC | true
COc1ccc(-c2c(C)nc3cc(-c4ccccc4)nn3c2-c2cc(OC)c(OC)c(OC)c2)cc1 | true
COc1cc(-c2c(-c3ccc(Cl)cc3)c(C)nc3cc(-c4cccs4)nn23)cc(OC)c1OC | false
COc1cc(-c2c(C)nc3cc(C)nn3c2-c2cc(OC)c(OC)c(OC)c2)cc(OC)c1OC | false
COc1cc(-c2c(C)nc3cc(C4CC4)nn3c2-c2cc(OC)c(OC)c(OC)c2)cc(OC)c1OC | false

Report whether reported IC50 is lower than 50 nM (strictly) for COc1ccc(-c2c(C)nc3cc(C4CC4)nn3c2-c2cc(OC)c(OC)c(OC)c2)cc1 false

Again, but for COc1cc(-c2c(-c3ccc(Br)cc3)c(C)nc3cc(-c4ccco4)nn23)cc(OC)c1OC false

Request: COc1ccc(-c2c(C)nc3cc(C#N)nn3c2-c2cc(OC)c(OC)c(OC)c2)cc1 false

Consider next the compound COc1ccc(-c2c(C)nc3cc(-c4ccccc4)nn3c2-c2cc(OC)c(OC)c(OC)c2)cc1OC in the same way. true

Another compound to check: COc1ccc(-c2c(C)nc3cc(-c4cccs4)nn3c2-c2cc(OC)c(OC)c(OC)c2)cc1OC true

Would you kindly repeat that for COc1cc(-c2c(-c3ccc(Br)cc3)c(C)nc3cc(-c4ccccc4)nn23)cc(OC)c1OC ? false

Entry COc1cc(-c2c(C)nc3cc(-c4ccccc4)nn3c2-c2cc(OC)c(OC)c(OC)c2)cc(OC)c1OC please true

Same for COc1ccc(-c2c(C)nc3ccnn3c2-c2cc(OC)c(OC)c(OC)c2)cc1OC false

Same question, COc1cc(-c2c(C)nc3cc(-c4ccco4)nn3c2-c2cc(OC)c(OC)c(OC)c2)cc(OC)c1OC this time true

Quick one: COc1ccc(-c2c(C)nc3ccnn3c2-c2cc(OC)c(OC)c(OC)c2)cc1 false

Please give the result for COc1cc(-c2c(C)nc3ccnn3c2-c2cc(OC)c(OC)c(OC)c2)cc(OC)c1OC too. false

Lookup COc1cc(-c2c(-c3ccc(Br)cc3)c(C)nc3cc(-c4cccs4)nn23)cc(OC)c1OC true

====

- System: NCI/ADR-RES
- PROTOCOL_NOTES: Antiproliferative activity against human MCF7ADR cells assessed as survival rate at 5 uM incubated for 72 hrs by MTT assay
- Format: functional
- CONDITION_INFO: read-out: Survival
MEASUREMENT_KIND: viability at 5 µM (%)
Supply the numeric figure in %, leaving out any unit text.

COMPOUND_STRING | viability at 5 µM / %
COc1ccc(-c2c(C)nc3cc(-c4ccccc4)nn3c2-c2cc(OC)c(OC)c(OC)c2)cc1OC | 89.2
COc1cc(-c2c(C)nc3cc(C)nn3c2-c2cc(OC)c(OC)c(OC)c2)cc(OC)c1OC | 96.6
COc1cc(-c2c(-c3ccc(Cl)cc3)c(C)nc3cc(-c4cccs4)nn23)cc(OC)c1OC | 94.2

Continue with the compound presented below.
Please report the recorded viability at 5 µM for COc1ccc(-c2c(C)nc3cc(C4CC4)nn3c2-c2cc(OC)c(OC)c(OC)c2)cc1 . 95.1
